Where do these numbers come from? They come from patent US10246453B2.

Measured target: NaV1.6 (Homo sapiens (Human), UniProt Q9UQD0)
Sequence (Q9UQD0 whole entry, looked up): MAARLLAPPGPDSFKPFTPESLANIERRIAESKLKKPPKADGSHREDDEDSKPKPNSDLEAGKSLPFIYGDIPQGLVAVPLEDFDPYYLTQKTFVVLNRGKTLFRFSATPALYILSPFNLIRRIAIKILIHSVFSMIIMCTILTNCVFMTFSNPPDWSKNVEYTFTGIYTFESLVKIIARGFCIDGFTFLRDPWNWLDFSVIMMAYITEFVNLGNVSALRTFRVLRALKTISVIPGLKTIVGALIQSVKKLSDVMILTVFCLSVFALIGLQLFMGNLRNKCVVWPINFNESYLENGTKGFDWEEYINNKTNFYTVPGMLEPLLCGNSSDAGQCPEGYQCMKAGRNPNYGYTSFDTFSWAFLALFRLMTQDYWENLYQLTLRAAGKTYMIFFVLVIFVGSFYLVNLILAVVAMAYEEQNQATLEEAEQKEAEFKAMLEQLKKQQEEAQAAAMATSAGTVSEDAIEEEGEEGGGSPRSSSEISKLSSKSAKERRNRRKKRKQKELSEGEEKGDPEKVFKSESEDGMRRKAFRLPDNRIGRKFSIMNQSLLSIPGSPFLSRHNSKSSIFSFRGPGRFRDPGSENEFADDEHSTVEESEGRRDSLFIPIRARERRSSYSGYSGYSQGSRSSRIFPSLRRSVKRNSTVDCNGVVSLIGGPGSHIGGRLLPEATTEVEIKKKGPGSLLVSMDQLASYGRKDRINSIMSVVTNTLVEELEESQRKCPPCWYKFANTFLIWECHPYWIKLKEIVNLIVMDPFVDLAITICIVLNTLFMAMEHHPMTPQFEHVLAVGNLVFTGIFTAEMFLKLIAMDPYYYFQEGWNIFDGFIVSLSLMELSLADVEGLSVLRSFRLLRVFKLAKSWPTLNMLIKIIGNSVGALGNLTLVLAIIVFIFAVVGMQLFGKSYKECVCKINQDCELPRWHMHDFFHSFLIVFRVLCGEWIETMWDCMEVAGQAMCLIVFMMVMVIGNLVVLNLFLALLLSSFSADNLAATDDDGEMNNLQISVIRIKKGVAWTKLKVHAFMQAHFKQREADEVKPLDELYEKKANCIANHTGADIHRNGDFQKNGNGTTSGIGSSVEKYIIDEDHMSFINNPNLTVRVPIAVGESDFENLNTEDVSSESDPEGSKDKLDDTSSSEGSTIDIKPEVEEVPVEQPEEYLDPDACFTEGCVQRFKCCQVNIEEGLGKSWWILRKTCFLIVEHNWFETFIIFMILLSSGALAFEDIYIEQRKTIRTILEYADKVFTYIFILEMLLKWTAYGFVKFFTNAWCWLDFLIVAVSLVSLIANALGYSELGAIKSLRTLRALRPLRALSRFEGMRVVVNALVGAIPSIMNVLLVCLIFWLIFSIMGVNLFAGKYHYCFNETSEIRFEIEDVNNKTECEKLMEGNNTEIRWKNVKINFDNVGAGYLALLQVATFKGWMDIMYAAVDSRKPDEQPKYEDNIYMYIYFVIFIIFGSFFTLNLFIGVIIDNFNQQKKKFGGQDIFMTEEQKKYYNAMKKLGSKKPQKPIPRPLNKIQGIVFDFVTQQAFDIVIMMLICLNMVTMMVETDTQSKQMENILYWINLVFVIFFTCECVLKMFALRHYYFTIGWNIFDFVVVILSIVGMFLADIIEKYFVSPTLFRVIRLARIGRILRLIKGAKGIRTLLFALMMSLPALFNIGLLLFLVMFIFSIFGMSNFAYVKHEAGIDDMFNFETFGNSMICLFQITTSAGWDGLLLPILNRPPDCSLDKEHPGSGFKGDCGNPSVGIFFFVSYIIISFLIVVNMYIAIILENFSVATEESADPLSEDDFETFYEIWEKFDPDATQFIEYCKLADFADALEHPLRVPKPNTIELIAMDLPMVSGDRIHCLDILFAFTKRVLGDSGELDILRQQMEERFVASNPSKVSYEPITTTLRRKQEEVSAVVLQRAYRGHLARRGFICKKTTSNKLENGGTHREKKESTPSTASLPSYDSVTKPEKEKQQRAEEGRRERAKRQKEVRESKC
Sequence (Q07699 whole entry partner, looked up): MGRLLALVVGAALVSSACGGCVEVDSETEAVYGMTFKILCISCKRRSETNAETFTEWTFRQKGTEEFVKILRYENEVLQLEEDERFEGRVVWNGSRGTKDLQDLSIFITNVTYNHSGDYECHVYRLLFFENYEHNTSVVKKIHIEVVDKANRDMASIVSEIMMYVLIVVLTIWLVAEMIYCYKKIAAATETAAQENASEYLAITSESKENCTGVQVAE
Assay procedure: Sodium Influx Assay (Flux), NaV1.6
Experimental conditions: read-out: Flux NaV1.6 IC50; Trex HEK293 cells, ANG2 dye; arithmetic mean
Where a name gives a salt, the structure may show the parent alone.
// classify: if (IC50 < 1000 nM) 1 (yes) else 0 (no)

| Compound | Category |
| --- | --- |
| O=S(=O)(Nc1nccs1)c1ccc(OC2CCN(Cc3cccnc3)CC2)c(Cl)c1 | 0 (no) |
| C[C@@H](c1ccccc1)N1CCC(Oc2ccc(S(=O)(=O)Nc3ncns3)cc2Cl)CC1 [Example 221, 2,2,2-trifluoroacetate] | 1 (yes) |
| CN(c1cc(F)c(S(=O)(=O)Nc2cscn2)cc1Cl)[C@H]1CCN(C2(c3ccccc3)CC2)C1 [Example 259, 2,2,2-trifluoroacetate] | 0 (no) |
| CC1(C)CNCCC1Oc1ccc(S(=O)(=O)Nc2ncns2)cc1Cl (centres unmarked) [Example 1, 2,2,2-trifluoroacetate] | 0 (no) |
| O=S(=O)(Nc1nccs1)c1ccc(OC2CCN(Cc3ccccc3C(F)(F)F)CC2)c(Cl)c1 | 0 (no) |

**Query** # check: IC50 < 1000 nM for `CC1(Oc2ccc(S(=O)(=O)Nc3nccs3)cc2Cl)CCN(Cc2cccc(C(F)F)c2)CC1`
**Result** 0 (no)

**Query** Given the entry `O=S(=O)(Nc1nccs1)c1ccc(OC2CCN(Cc3cccc(Cl)c3)CC2)c(Cl)c1` , would its reported IC50 be below 1000 nM?
**Result** 1 (yes)

**Query** Please check: IC50 for O=S(=O)(Nc1cscn1)c1cc(Cl)c(N[C@H]2CCN(Cc3ccccc3)C2)cc1F [Example 258, formate] , strictly under 1000 nM or not?
**Result** 0 (no)

**Query** Given `O=S(=O)(Nc1nccs1)c1ccc(N[C@@H]2CCN(Cc3ccccc3F)C2)c(Cl)c1` , is recorded IC50 strictly lower than 1000 nM?
**Result** 0 (no)

**Query** Please check: IC50 for `Cc1ccnc(CN2CCC(Oc3ccc(S(=O)(=O)Nc4nccs4)cc3Cl)CC2)c1` , strictly under 1000 nM or not?
**Result** 1 (yes)

* * *

Measured target: NaV1.6 (Homo sapiens (Human), UniProt Q9UQD0)
Assay procedure: Sodium Influx Assay (Flux), NaV1.6
Experimental conditions: read-out: Flux NaV1.6 IC50; Trex HEK293 cells, ANG2 dye; arithmetic mean
Recorded metric: pIC50
One number for each entry, as −log10 of the molar value.

| Compound | pIC50 |
| --- | --- |
| Cc1cc(S(=O)(=O)Nc2cscn2)c(F)cc1N(C)[C@H]1CCN(CC2CCCCC2)C1 [Example 123] | 5.40 |
| O=S(=O)(Nc1nccs1)c1ccc(OC2CCN(C3CCCCC3)CC2)c(Cl)c1 [Example 7, 2,2,2-trifluoroacetate] | 4.56 |
| CN(c1cc(F)c(S(=O)(=O)Nc2cscn2)cc1Cl)[C@H]1CCN([C@H]2CCc3ccccc32)C1 [Example 249, 2,2,2-trifluoroacetate] | 6.55 |

The record that follows has no pIC50 shown yet.
**Query** What pIC50 value was documented for this compound, Cc1cccc(CN2CCC(Oc3ccc(S(=O)(=O)Nc4nccs4)cc3Cl)CC2)n1 [Example 82] ?
**Result** 6.37
